molecular target: T1, LILRA2-His (Acro, LI2-H82E9) (human, UniProt Q8N149 24-449); test: ELISA, coated protein 1 µg/mL, antibody 10 µg/mL
T1 construct: Bought protein. 'Human' stands at the head of the list of coated proteins; not shown: His tag
T1 sequence (Q8N149 24-449 limits assumed): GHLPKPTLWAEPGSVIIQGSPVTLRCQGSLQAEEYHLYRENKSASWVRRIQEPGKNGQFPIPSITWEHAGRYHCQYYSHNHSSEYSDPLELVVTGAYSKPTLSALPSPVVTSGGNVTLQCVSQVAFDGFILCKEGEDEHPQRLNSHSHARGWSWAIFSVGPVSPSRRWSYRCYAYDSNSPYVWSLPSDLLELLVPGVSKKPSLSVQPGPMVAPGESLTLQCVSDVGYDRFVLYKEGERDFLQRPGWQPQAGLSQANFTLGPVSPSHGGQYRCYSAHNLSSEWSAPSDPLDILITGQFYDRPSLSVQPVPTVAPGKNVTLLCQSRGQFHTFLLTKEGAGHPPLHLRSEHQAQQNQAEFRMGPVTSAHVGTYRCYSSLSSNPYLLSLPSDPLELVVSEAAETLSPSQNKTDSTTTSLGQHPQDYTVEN
Assign absorbance at 450 nm to each entry below.
Give bare numbers, in absorbance at 450 nm.

// solved cases for absorbance at 450 nm follow
binder: humanized antibody huP2-E3 (antibody, human IgG4 S228P, kappa, F234A L235A, V domains shown, Full chains; The constant region is hIgG1(LALA) or hIgG4(LALA) with a kappa CL; also called P2-E3H6L2) VH: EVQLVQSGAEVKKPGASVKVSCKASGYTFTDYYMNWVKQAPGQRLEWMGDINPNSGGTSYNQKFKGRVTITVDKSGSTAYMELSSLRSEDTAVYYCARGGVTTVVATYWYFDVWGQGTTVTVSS VL: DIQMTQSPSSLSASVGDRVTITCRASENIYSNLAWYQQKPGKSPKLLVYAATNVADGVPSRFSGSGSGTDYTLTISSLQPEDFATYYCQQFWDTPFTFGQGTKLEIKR
absorbance at 450 nm [absorbance at 450 nm]: 0.055
--
binder: humanized antibody huP2-C6 (antibody, human IgG1, kappa, L234A L235A, V domains shown, Full chains; also called P2-C6H7L1) VH: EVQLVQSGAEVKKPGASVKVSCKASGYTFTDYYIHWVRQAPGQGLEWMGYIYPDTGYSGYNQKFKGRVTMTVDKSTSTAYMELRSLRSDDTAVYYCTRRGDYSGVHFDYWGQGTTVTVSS VL: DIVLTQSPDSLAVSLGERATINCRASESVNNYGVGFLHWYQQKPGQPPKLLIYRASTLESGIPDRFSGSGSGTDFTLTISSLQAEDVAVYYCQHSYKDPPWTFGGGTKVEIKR
absorbance at 450 nm [absorbance at 450 nm]: 0.0565
--
binder: humanized antibody huP2-G9 (antibody, human IgG1, kappa, L234A L235A, V domains shown, Full chains; also called P2-G9H1L2) VH: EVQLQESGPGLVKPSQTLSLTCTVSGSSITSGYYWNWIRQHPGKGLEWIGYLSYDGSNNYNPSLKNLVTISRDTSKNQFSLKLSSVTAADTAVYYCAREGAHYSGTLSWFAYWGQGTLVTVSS VL: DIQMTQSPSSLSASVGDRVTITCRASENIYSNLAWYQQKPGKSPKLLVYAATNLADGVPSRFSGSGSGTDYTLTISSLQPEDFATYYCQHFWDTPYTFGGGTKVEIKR
absorbance at 450 nm [absorbance at 450 nm]: 0.0759

**Q:** Returns the measured absorbance at 450 nm for the input binder. Input: humanized antibody huP2-E8 (antibody, human IgG4 S228P, kappa, F234A L235A, V domains shown, Full chains; also called P2-E8H4L1) VH: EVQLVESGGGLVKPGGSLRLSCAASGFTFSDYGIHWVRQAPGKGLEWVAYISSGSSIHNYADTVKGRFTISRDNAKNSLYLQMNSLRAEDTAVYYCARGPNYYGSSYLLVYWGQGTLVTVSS VL: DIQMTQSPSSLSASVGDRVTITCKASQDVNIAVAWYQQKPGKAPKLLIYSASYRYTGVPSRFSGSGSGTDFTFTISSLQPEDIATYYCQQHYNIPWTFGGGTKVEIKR
**A:** 0.0516
